src = ChEMBL document CHEMBL1157161

Listed next: entries and their corresponding Ratio.
test system: Hepatocyte; assay: Induction of […] mRNA expression in human hepatocyte FT271 at 1 uM after 24 hrs by RT-PCR relative to control; format: functional

Previously resolved entries follow.
1. CCOP(=O)(OCC)C(=Cc1cc(C(C)(C)C)c(O)c(C(C)(C)C)c1)P(=O)(OCC)OCC = 2
2. Cc1c(C)c(C)c(S(=O)(=O)Nc2ccc3c(c2)ncn3Cc2ccccc2)c(C)c1C = 4.86
3. O=S(=O)(Nc1ccc2c(c1)ncn2Cc1ccccc1)c1ccccc1Cl = 3.05

Please find the next molecule below.
Look up Ratio for this molecule: "Cc1cc(C)c(S(=O)(=O)Nc2ccc3c(c2)ncn3Cc2ccccc2)c(C)c1"
1.89

* * *

Listed next: entries and their corresponding EC50.
Biological target: UniProtKB O75469
Sequence (O75469 whole entry): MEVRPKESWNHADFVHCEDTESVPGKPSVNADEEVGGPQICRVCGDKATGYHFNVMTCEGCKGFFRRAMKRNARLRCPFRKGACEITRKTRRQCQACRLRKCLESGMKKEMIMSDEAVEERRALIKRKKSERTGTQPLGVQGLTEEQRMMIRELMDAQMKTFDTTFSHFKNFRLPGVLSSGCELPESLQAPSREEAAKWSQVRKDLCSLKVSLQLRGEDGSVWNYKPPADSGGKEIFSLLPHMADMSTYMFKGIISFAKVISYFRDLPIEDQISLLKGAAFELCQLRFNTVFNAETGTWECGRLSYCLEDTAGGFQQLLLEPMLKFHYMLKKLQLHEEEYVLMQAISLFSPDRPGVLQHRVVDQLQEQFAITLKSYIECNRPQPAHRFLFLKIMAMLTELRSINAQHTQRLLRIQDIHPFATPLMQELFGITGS
Experiment: Agonist activity at human pregnane X receptor expressed in HGPXR reporter cells
Format: functional, cell-based

Previously resolved entries follow.
1) O=C(Cc1ccc2ccccc2c1)Nc1ccc2c(c1)ncn2Cc1ccccc1 = > 5 µM
2) O=C(Nc1ccc2c(c1)ncn2Cc1ccccc1)Nc1cccc2ccccc12 = > 5 µM

Please find the next compound below.
Look up EC50 for this compound: "O=C(Nc1ccc2c(c1)ncn2Cc1ccccc1)Nc1ccccc1[N+](=O)[O-]"
> 5 µM
